# credit: ChEMBL document CHEMBL1133185

Listed here are compounds together with their documented IC90.
- Test system: Human immunodeficiency virus 1
- Test protocol: In vitro antiviral activity against HIV-1 (L100I).
- Assay type: functional
Please respond with the number in nM and leave the unit unwritten.

Previously resolved entries follow.
{"Compound": "O=C1Nc2cccc(F)c2[C@@](C#CC2CC2)(C(F)(F)F)N1", "IC90 / nM": 108}
{"Compound": "COc1ccc2c(c1)[C@@](C#Cc1ccccn1)(C(F)(F)F)NC(=O)N2", "IC90 / nM": 98}
{"Compound": "COc1ccc2c(c1)[C@@](C#CC1CC1)(C(F)(F)F)NC(=O)N2", "IC90 / nM": 46}
{"Compound": "COc1ccc2c(c1)[C@@](C#Cc1ccccc1)(C(F)(F)F)NC(=O)N2", "IC90 / nM": 462}
{"Compound": "O=C1Nc2ccc(F)c(F)c2[C@@](C#Cc2ccccc2)(C(F)(F)F)N1", "IC90 / nM": 256}
{"Compound": "O=C1Nc2ccc(F)c(F)c2[C@@](C#CC2CC2)(C(F)(F)F)N1 (stereo in doubt; 13)", "IC90 / nM": 12}
{"Compound": "O=C1Nc2cccc(Cl)c2[C@@](C#CC2CC2)(C(F)(F)F)N1", "IC90 / nM": 70}
{"Compound": "CC(C)C#C[C@]1(C(F)(F)F)NC(=O)Nc2ccc(Cl)cc21", "IC90 / nM": 28}
{"Compound": "O=C1Nc2ccc(Cl)cc2[C@@](C#Cc2ccccn2)(C(F)(F)F)N1", "IC90 / nM": 64}
{"Compound": "O=C1Nc2ccc(Cl)cc2[C@@](C#CC2CC2)(C(F)(F)F)N1 (stereo in doubt; 14)", "IC90 / nM": 18}

Moving on to another compound below.
Query block: Name the recorded IC90 of the compound listed here: O=C1Nc2ccc(Cl)cc2[C@@](C#CC2CC2)(C(F)(F)F)O1
Result block: 77

---

Listed here are compounds together with their documented IC90.
- Test system: Human immunodeficiency virus 1
- Test protocol: Calculated Potency against Mutant HIV-1 K103N
- Format: functional
Please respond with the number in nM and leave the unit unwritten.

{"Compound": "O=C1Nc2ccc(F)c(F)c2[C@@](/C=C/C2CC2)(C(F)(F)F)N1", "Measurement name": "IC90", "Experimental result": 11}
{"Compound": "O=C1Nc2ccc(Cl)cc2[C@@](/C=C/C2CC2)(C(F)(F)F)N1", "Measurement name": "IC90", "Experimental result": 11}
{"Compound": "O=C1Nc2ccc(F)c(F)c2[C@@](C#CC2CC2)(C(F)(F)F)N1 (stereo in doubt)", "Measurement name": "IC90", "Experimental result": 4}

Query block: Name the recorded IC90 of the compound listed here: O=C1Nc2ccc(Cl)cc2[C@@](C#CC2CC2)(C(F)(F)F)N1 (stereo in doubt)
Result block: 3.1

---

- Target desc: Human immunodeficiency virus type 1 reverse transcriptase (Human immunodeficiency virus 1)
- Experimental conditions: Plasma
- Description: Effect of human plasma protein binding on antiviral efficacy.
Listed here are compounds together with their documented IC90.
Please respond with the number in nM and leave the unit unwritten.

Previously resolved entries follow.
{"Compound": "O=C1Nc2ccc(Cl)c(F)c2[C@@](C#CC2CC2)(C(F)(F)F)N1", "Unit spec": "nM", "IC90": 40}
{"Compound": "O=C1Nc2ccc(Cl)cc2[C@@](C#CC2CC2)(C(F)(F)F)N1 (stereo in doubt; 14)", "Unit spec": "nM", "IC90": 41}
{"Compound": "COc1ccc2c(c1)[C@@](C#CC(C)C)(C(F)(F)F)NC(=O)N2", "Unit spec": "nM", "IC90": 42}
{"Compound": "O=C1Nc2ccc(Cl)cc2[C@@](C#Cc2ccccn2)(C(F)(F)F)N1", "Unit spec": "nM", "IC90": 79}

Moving on to another compound below.
Query block: Give measured IC90 for O=C1Nc2ccc(F)c(F)c2[C@@](C#CC2CC2)(C(F)(F)F)N1 (stereo in doubt; 13) (Human immunodeficiency virus type 1 reverse transcriptase (Human immunodeficiency virus 1)).
Result block: 19

---

- Target desc: Human immunodeficiency virus type 1 reverse transcriptase (Human immunodeficiency virus 1)
Mark criterion met only when IC50 stays strictly below 70 nM. Values equal to the cut-off are criterion not met.

Some solved cases for reference:
{"Molecule": "COc1ccc2c(c1)[C@@](C#Cc1ccccc1)(C(F)(F)F)NC(=O)N2", "Target desc": "Human immunodeficiency virus type 1 reverse transcriptase (Human immunodeficiency virus 1)", "Qualitative label": "criterion not met"}
{"Molecule": "O=C1Nc2ccc(F)cc2[C@@](C#Cc2ccccc2)(C(F)(F)F)N1", "Target desc": "Human immunodeficiency virus type 1 reverse transcriptase (Human immunodeficiency virus 1)", "Qualitative label": "criterion not met"}
{"Molecule": "CC(C)C#C[C@]1(C(F)(F)F)NC(=O)Nc2ccc(F)cc21", "Target desc": "Human immunodeficiency virus type 1 reverse transcriptase (Human immunodeficiency virus 1)", "Qualitative label": "criterion met"}

Query block: IC50 strictly < 70 nM for this molecule? O=C1Nc2ccc(Cl)cc2[C@@](C#CC2CC2)(C(F)(F)F)N1 (stereo in doubt; 14)
Result block: criterion not met

Query block: IC50 strictly < 70 nM for this molecule? CC(C)C#C[C@]1(C(F)(F)F)NC(=O)Nc2ccc(Cl)cc21
Result block: criterion not met

Query block: IC50 strictly < 70 nM for this molecule? CC(C)C#C[C@]1(C(F)(F)F)NC(=O)Nc2ccc(F)c(Cl)c21
Result block: criterion not met

Query block: IC50 strictly < 70 nM for this molecule? O=C1Nc2ccc(Cl)cc2[C@@](C#Cc2ccccn2)(C(F)(F)F)N1
Result block: criterion not met

Query block: IC50 strictly < 70 nM for this molecule? CCC#C[C@]1(C(F)(F)F)NC(=O)Nc2ccc(F)c(F)c21
Result block: criterion not met

---

- Test system: MT2
- Test protocol: Antiviral activity against RF strain of HIV in MT-2 cells by RNA assay
- Type: functional
- Experimental conditions: Homo sapiens
Listed here are compounds together with their documented IC90.
Please respond with the number in nM and leave the unit unwritten.

{"Compound": "O=C1Nc2ccc(Cl)cc2[C@@](C#CC2CC2)(C(F)(F)F)N1 (stereo in doubt)", "Measurement name": "IC90", "Unit spec": "nM", "Experimental result": 2}
{"Compound": "O=C1Nc2ccc(Cl)cc2[C@@](/C=C/C2CC2)(C(F)(F)F)N1", "Measurement name": "IC90", "Unit spec": "nM", "Experimental result": 2.1}
{"Compound": "O=C1Nc2ccc(F)c(F)c2[C@@](C#CC2CC2)(C(F)(F)F)N1 (stereo in doubt)", "Measurement name": "IC90", "Unit spec": "nM", "Experimental result": 1.3}

Query block: Name the recorded IC90 of the compound listed here: O=C1Nc2ccc(F)c(F)c2[C@@](/C=C/C2CC2)(C(F)(F)F)N1
Result block: 2

---

- Target desc: Human immunodeficiency virus type 1 reverse transcriptase (Human immunodeficiency virus 1)
- Experimental conditions: Plasma
Measurement name: IC90

{"Molecule": "COc1ccc2c(c1)[C@@](C#CC1CC1)(C(F)(F)F)NC(=O)N2", "Experimental result": "29 nM"}

Moving on to another molecule below.
Query block: Name the recorded IC90 of the molecule listed here: CCC#C[C@]1(C(F)(F)F)NC(=O)Nc2ccc(Cl)cc21
Result block: 83 nM

---

Measured pIC50 on UniProtKB Q72547 follows.
When answering, recall that pIC50 equals minus log10 of the concentration in mol/L, and write that number alone.

Previously resolved entries follow.
{"Compound": "O=C1Nc2ccc(Cl)c(Cl)c2[C@@](C#CC2CC2)(C(F)(F)F)N1", "Target desc": "UniProtKB Q72547", "pIC50": 6.78}
{"Compound": "O=C1Nc2ccc(F)cc2[C@@](C#CC2CC2)(C(F)(F)F)N1", "Target desc": "UniProtKB Q72547", "pIC50": 7.30}
{"Compound": "CCC#C[C@]1(C(F)(F)F)NC(=O)Nc2ccc(F)cc21", "Target desc": "UniProtKB Q72547", "pIC50": 7.27}
{"Compound": "CC(C)C#C[C@]1(C(F)(F)F)NC(=O)Nc2ccc(F)c(F)c21 (stereo in doubt; 20)", "Target desc": "UniProtKB Q72547", "pIC50": 7.04}

Query block: Give measured pIC50 for CCC#C[C@]1(C(F)(F)F)NC(=O)Nc2ccc(Cl)cc21 (UniProtKB Q72547).
Result block: 6.96

---

Listed here are compounds together with their documented IC90.
- System: Human immunodeficiency virus 1
- Test protocol: Potency against Mutant HIV-1 sV179D/L100I/Y181C
- Format: functional
Please respond with the number in nM and leave the unit unwritten.

{"Compound": "O=C1Nc2ccc(F)c(F)c2[C@@](C#CC2CC2)(C(F)(F)F)N1 (stereo in doubt)", "Unit spec": "nM", "IC90": 110}

Query block: Name the recorded IC90 of the compound listed here: O=C1Nc2ccc(F)c(F)c2[C@@](/C=C/C2CC2)(C(F)(F)F)N1
Result block: 250

Query block: Name the recorded IC90 of the compound listed here: O=C1Nc2ccc(Cl)cc2[C@@](C#CC2CC2)(C(F)(F)F)N1 (stereo in doubt)
Result block: 190

Query block: Name the recorded IC90 of the compound listed here: O=C1Nc2ccc(Cl)cc2[C@@](/C=C/C2CC2)(C(F)(F)F)N1
Result block: 320
